Test: Apparent pKa of LNP formulations (TNS fluorescence assay)
Conditions: LNP cationic lipid/DSPC/cholesterol/DMG-PEG 50/10/38.5/1.5 mol %, Table 3
Attribute measured: Apparant Pka

Compound: CCCCCCCCC(CCCCCCCC)COC(=O)CCCCCN(CCCCCC(=O)OCC(CCCCCCCC)CCCCCCCC)CCN(CCO)C1CC(F)(F)C1
Apparant Pka: 5.735

Compound: CCCCCCCCC(CCCCCC)CC(=O)COCCCCN(CCCCCOC(=O)CC(CCCCCC)CCCCCCCC)CCN(CCO)C1CC1 (stereo not drawn)
Apparant Pka: 6.087

Compound: CCCCCCCCC(CCCCCC)COC(=O)CCCCCN(CCCCCC(=O)OCC(CCCCCC)CCCCCCCC)CCN(CCCC)C1CCC(O)CC1 (stereo not drawn)
Apparant Pka: 6.364

Compound: CCCCCCCCC(CCCCCC)CC(=O)NCCCCCN(CCCCCNC(=O)CC(CCCCCC)CCCCCCCC)CCN(CCO)C1CC1 (stereo not drawn)
Apparant Pka: 6.728

Compound: CCCCCCCCC(CCCCCC)CC(=O)COCCCCN(CCCCCOC(=O)CC(CCCCCC)CCCCCCCC)CCN(CCO)C1CCCC1 (stereo not drawn)
Apparant Pka: 6.334

Compound: CCCCCCCCC(CCCCCC)COC(=O)NCCCCN(CCCCNC(=O)OCC(CCCCCC)CCCCCCCC)CCN(CCO)C1CCCCC1 (stereo not drawn)
Apparant Pka: 6.984

* * *

Assay: Lipid nanoparticle size by dynamic light scattering (Malvern Zetasizer Nano ZS)
Type: physicochemical
Details: LNP: cationic lipid/DSPC/cholesterol/PEG-lipid 50:10:38.5:1.5, hEPO mRNA; Table 3
Experimental: Briefly, a cationic lipid provided herein, DSPC, cholesterol, and PEG-lipid were solubilized in ethanol at a molar ratio of 50:10:38.5:1.5, and mRNA were diluted in 10 to 50 mM citrate buffer, pH=4. […] Lipid nanoparticle size were determined by dynamic light scattering using a Malvern Zetasizer Nano ZS (Malvern UK) using a 173° backscatter detection mode. […]
Attribute measured: size nm (nm)

Molecule: CCCCCCCCC(CCCCCC)COC(=O)CCCCCN(CCCCCC(=O)OCC(CCCCCC)CCCCCCCC)CCN(CCCO)C1CCC1 (stereo not shown)
size nm, nm: 79.82
//
Molecule: CCCCCCCCC(CCCCCC)COC(=O)CCCCCN(CCCCCC(=O)OCC(CCCCCC)CCCCCCCC)C(=O)CCCN(CCO)C1CCC1 (stereo not shown)
size nm, nm: 89.96
//
Molecule: CCCCCCCCC(CCCCCC)COC(=O)CCCCCN(CCCCCC(=O)OCC(CCCCCC)CCCCCCCC)CCN(CC(O)CCCC)C1CCC1 (stereo not shown)
size nm, nm: 62.2
//
Molecule: CCCCCCCCC(CCCCCC)CNC(=O)CCCCCN(CCCCCC(=O)NCC(CCCCCC)CCCCCCCC)CCN(CCO)C1CCCCCC1 (stereo not shown)
size nm, nm: 49.51
//
Molecule: CCCCCCCCC(CCCCCC)C(=O)OCCCCCCCCCN(CCCCCCCCCOC(=O)C(CCCCCC)CCCCCCCC)CCN(CCO)C1CCC1 (stereo not shown)
size nm, nm: 83.85
//
Molecule: CCCCCCCCC(CCCCCC)COC(=O)CCCCCN(CCCCCC(=O)OCC(CCCCCC)CCCCCCCC)CCN(CCO)C1COC1 (stereo not shown)
size nm, nm: 66.89
//
Molecule: CCCCC/C=C\CCCC(=O)C(CC/C=C\CCCCC)C(CCC/C=C\CCCCC)OC(=O)CCCCCN(CCCCCC(=O)OCCC/C=C/CCCCC)CCN(CCO)C1CCC1 (stereo not shown)
size nm, nm: 72
//
Molecule: CCCCCCCCC(CCCCCC)CC(=O)NCCCCCN(CCCCCNC(=O)CC(CCCCCC)CCCCCCCC)CCN(CCO)C1CCCCC1 (stereo not shown)
size nm, nm: 65.12
//
Molecule: CCCCCCCCC(CCCCCCCC)COC(=O)CCCCCN(CCCCCC(=O)OCC(CCCCCCCC)CCCCCCCC)CCN(CCO)C1CCOC1 (stereo not shown)
size nm, nm: 65.71
//
Molecule: CCCCCCCCC(CCCCCC)COC(=O)CCCCCC(CCCCCC(=O)OCC(CCCCCC)CCCCCCCC)CN(C)CCO (stereo not shown)
size nm, nm: 60.13
//
Molecule: CCCCCCCCC(CCCCCC)CNC(=O)CCCCCN(CCCCCC(=O)OCC(CCCCCC)CCCCCCCC)CCN(CCO)C1CCCCCC1 (stereo not shown)
size nm, nm: 79.73
//
Molecule: CCCCCCCCC(CCCCCC)CC(=O)COCCCCN(CCCCCOC(=O)CC(CCCCCC)CCCCCCCC)CCN(CCO)C1CC1 (stereo not shown)
size nm, nm: 64.96
//
Molecule: CCCCC/C=C\CCCC(CCC/C=C\CCCCC)COC(=O)CCCCCN(CCCCCC(=O)OCC(CCC/C=C\CCCCC)CCC/C=C\CCCCC)CCN(CCO)C1CCC1
size nm, nm: 63.86

* * *

Test: Apparent pKa of LNP formulations (TNS fluorescence assay)
Details: LNP cationic lipid/DSPC/cholesterol/DMG-PEG 50/10/38.5/1.5 mol %, Table 3
Attribute measured: Apparant Pka

Molecule: CCCCCCCCCCCOC(=O)CCCCCN(CCCCCC(=O)OCC(CCCCCCCC)CCCCCCCC)CCN(CCO)C1CCCCC1
Apparant Pka: 6.328
//
Molecule: CCCCCCCCC(CCCCCC)COC(=O)CCCCCN(CCCCCC(=O)OCC(CCCCCC)CCCCCCCC)CCN(CCC)C1CC(O)C1 (stereo not shown)
Apparant Pka: 6.329
//
Molecule: CCCCCCCCC(CCCCCC)COC(=O)NCCCCN(CCCCNC(=O)OCC(CCCCCC)CCCCCCCC)CCN(CCO)C1CCCC1 (stereo not shown)
Apparant Pka: 6.833
//
Molecule: CCCCCCCCCCCOC(=O)CCCCCN(CCCCCC(=O)NCC(CCCCCCCC)CCCCCCCC)CCN(CCO)C1CCCCC1
Apparant Pka: 7.146
//
Molecule: CCCCCCCCCCC(CCCCCC)COC(=O)CCCCN(CCCCC(=O)OCC(CCCCCC)CCCCCCCCCC)CCN(CCO)C1CCC1 (stereo not shown)
Apparant Pka: 6.196
//
Molecule: CCCCCCCCC(CCCCCC)CC(=O)NCCCCCN(CCCCCNC(=O)CC(CCCCCC)CCCCCCCC)CCN(CCO)C1CCCCCC1 (stereo not shown)
Apparant Pka: 6.795
//
Molecule: CCCCCCCCC(CCCCCC)COC(=O)CCCCN(CCCCC(=O)OCC(CCCCCC)CCCCCCCC)CCN(CCO)C1CCC1 (stereo not shown)
Apparant Pka: 5.907

* * *

Experiment: Lipid nanoparticle size by dynamic light scattering (Malvern Zetasizer Nano ZS)
Type: physicochemical
Conditions: LNP: cationic lipid/DSPC/cholesterol/PEG-lipid 50:10:38.5:1.5, hEPO mRNA; Table 3
Attribute measured: size nm (nm)

A selection of reference data follows.
Molecule: CCCCCCCCCCCOC(=O)CCCCCN(CCCCCC(=O)OCC(CCCCCCCC)CCCCCCCC)CCN(CCO)C1CCCCCC1
size nm [nm]: 65.55
//
Molecule: CCCCCCCCCCC(CCCCCC)COC(=O)CCCN(CCCC(=O)OCC(CCCCCC)CCCCCCCCCC)CCN(CCO)C1CCC1 (stereo not shown)
size nm [nm]: 64.04
//
Molecule: CCCCCCCCC(CCCCCC)COC(=O)CCCCCN(CCCCCC(=O)OCC(CCCCCC)CCCCCCCC)CCN1CCC(O)CC1 (stereo not shown)
size nm [nm]: 85.98
//
Molecule: CCCCCCC(CCCCCC)CC(=O)NCCCCCN(CCCCCOC(=O)CC(CCCCCC)CCCCCC)CCN(CCO)C1CCCCC1
size nm [nm]: 92.17
//
Molecule: CCCCCCCCCCCOC(=O)CCCCCN(CCCCCC(=O)OCC(CCCCCCCC)CCCCCCCC)CCN(CCO)C1CCCCC1
size nm [nm]: 67.62

a. CCCCCCCCC(CCCCCC)CC(=O)NCCCCCN(CCCCCNC(=O)CC(CCCCCC)CCCCCCCC)CCN(CCO)C1CCC1 (stereo not shown)
b. CCCCCCCCC(CCCCCCCC)COC(=O)CCCCCN(CCCCCC(=O)OCC(CCCCCCCC)CCCCCCCC)CCN(CCCCCC)C1CCC(O)CC1 (stereo not shown)
Ask | Which of the two items, a and b , has the greater recorded size nm? Response format: the label of the selected entry.
Reply | a
(a: 92.4 nm, b: 62.36 nm)

* * *

Assay: Lipid nanoparticle size by dynamic light scattering (Malvern Zetasizer Nano ZS)
Format: physicochemical
Conditions: LNP: cationic lipid/DSPC/cholesterol/PEG-lipid 50:10:38.5:1.5, hEPO mRNA; Table 3
Attribute measured: size nm (nm)

Molecule: CCCCCCCCC(CCCCCC)CC(=O)OCCCCCN(CCCCCOC(=O)CC(CCCCCC)CCCCCCCC)CCN(CCO)C1CCC1 (stereo not shown) [Compound 20]
size nm, nm: 76.79
//
Molecule: CCCCCCCCC(CCCCCC)CNC(=O)NCCCCN(CCCCNC(=O)NCC(CCCCCC)CCCCCCCC)CCN(CCO)C1CCCCC1 (stereo not shown) [Compound 122]
size nm, nm: 57.81
//
Molecule: CCCCCCCCC(CCCCCC)COC(=O)CCCCCN(CCCCCC(=O)OCC(CCCCCC)CCCCCCCC)CCN(C(C)C)C1CCC(O)CC1 (stereo not shown) [Compound 57]
size nm, nm: 93.52
//
Molecule: CCCCCCCCC(CCCCCC)COC(=O)CCCCCCN(CCCCCCC(=O)OCC(CCCCCC)CCCCCCCC)CCN(CCO)C1CCC1 (stereo not shown) [Compound 37]
size nm, nm: 84.26
//
Molecule: CCCCCCCCC(CCCCCC)CC(=O)NCCCCCN(CCCCCOC(=O)CC(CCCCCC)CCCCCCCC)CCN(CCO)C1CCCCC1 (stereo not shown) [Compound 131]
size nm, nm: 79.11
//
Molecule: CCCCCCCCC(CCCCCC)COC(=O)CCCCCN(CCCCCC(=O)OCC(CCCCCC)CCCCCCCC)CCN1CCC(O)C1 (stereo not shown) [Compound 95]
size nm, nm: 82.43
//
Molecule: CCCCCCCCCCCOC(=O)CCCCCN(CCCCCC(=O)NCC(CCCCCCCC)CCCCCCCC)CCN(CCO)C1CCC1 [Compound 146]
size nm, nm: 66.27
